- test.system: alanyl aminopeptidases (APN) (Homo sapiens, UniProt P15144)
- Sequence (P15144 whole entry, species assumed): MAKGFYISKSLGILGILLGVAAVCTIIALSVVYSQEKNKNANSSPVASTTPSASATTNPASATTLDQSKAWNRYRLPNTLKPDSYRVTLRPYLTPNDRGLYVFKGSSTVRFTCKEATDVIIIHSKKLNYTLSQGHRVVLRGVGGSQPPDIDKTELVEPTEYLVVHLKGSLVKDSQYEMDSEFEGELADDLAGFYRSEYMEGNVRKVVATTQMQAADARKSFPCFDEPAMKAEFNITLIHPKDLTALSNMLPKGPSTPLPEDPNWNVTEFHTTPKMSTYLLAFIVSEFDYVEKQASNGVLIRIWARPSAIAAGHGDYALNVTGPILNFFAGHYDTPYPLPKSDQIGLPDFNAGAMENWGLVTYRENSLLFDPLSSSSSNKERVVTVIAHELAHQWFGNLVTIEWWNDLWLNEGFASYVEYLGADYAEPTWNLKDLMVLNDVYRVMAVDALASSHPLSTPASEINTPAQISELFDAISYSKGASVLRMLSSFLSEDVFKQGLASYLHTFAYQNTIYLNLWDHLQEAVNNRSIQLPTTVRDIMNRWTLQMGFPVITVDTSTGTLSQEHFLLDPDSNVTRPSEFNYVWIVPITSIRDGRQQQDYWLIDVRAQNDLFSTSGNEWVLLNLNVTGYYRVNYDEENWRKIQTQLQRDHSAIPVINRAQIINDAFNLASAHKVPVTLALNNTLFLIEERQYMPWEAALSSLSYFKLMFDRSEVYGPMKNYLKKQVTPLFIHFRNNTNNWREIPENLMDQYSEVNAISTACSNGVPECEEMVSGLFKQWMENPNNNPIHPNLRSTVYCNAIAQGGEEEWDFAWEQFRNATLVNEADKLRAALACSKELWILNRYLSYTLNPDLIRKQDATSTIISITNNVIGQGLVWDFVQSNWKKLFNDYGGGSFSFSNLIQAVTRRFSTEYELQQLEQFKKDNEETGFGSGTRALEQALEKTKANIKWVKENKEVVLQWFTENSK
- measurement.notes: Inhibition of alanyl aminopeptidase enzymatic activity, fluorogenic substrate (Ala)2-rhodamine 110
- Assay type: biochemical
- measurement.conditions: Table 11; read-out: IC50APN
pIC50: −log10 of the molar value.
Decision: pIC50 >= 4 yields 1.0, all other cases yield 0.0.

{"compound": "O=c1[nH]cc([N+](=O)[O-])cc1C(F)(F)F [A11.021]", "classification": 1.0}
{"compound": "COc1cccc(C(=O)NCC(=O)N/N=C/c2ccc([N+](=O)[O-])o2)c1 [A11.035]", "classification": 0.0}
{"compound": "CC(NC(=O)C(=O)N/N=C\\c1cc([N+](=O)[O-])ccc1O)c1ccccc1 (centres unmarked) [A11.007]", "classification": 1.0}

[Q] Quick check: does O=C(Nc1ccccc1F)c1ccc([N+](=O)[O-])o1 [A11.034] have pIC50 greater than or equal to 4?
[A] 1.0

----------
- test.system: alanyl aminopeptidases (APN) (Homo sapiens, UniProt P15144)
- measurement.notes: Inhibition of alanyl aminopeptidase enzymatic activity, fluorogenic substrate (Ala)2-rhodamine 110
- Type: biochemical
- measurement.conditions: Table 3, unstarred values; read-out: IC50APN
For each record, check the reported IC50: if it is below 30 µM write t, else write f.

Consider the following illustrative entries.
{"compound": "COC(=O)c1cccc(-c2ccc(/C=C3\\C(=O)N(CCO)C(=O)C(C#N)=C3C)o2)c1", "classification": "t"}
{"compound": "COc1ccc(C2NCCS2)cc1 (stereo not drawn)", "classification": "t"}
{"compound": "CN(C)CCCN1CCN(c2nc(N(C)CC(=O)O)c3ncn(Cc4ccc(C(F)(F)F)cc4)c3n2)CC1", "classification": "t"}
{"compound": "COc1ccc(N(C(C)C(=O)N/N=C/c2ccco2)S(C)(=O)=O)cc1 (stereo not drawn)", "classification": "f"}
{"compound": "Cc1nc(N)sc1C(=O)N/N=C/c1ccco1", "classification": "t"}

[Q] Is it true that IC50 reported for "Cc1ccccc1C(=O)Nc1ccc(C(=O)N/N=C/c2ccco2)cc1" is less than 30 µM?
[A] f

[Q] Hi there! Is IC50 for "Cc1ccc(/C=N/NC(=O)c2cccc(Cl)c2)o1" below 30 µM, do you know?
[A] t

[Q] Field: below-cutoff. Rule: recorded IC50 strictly less than 30 µM. Subject: "Cc1ccc(C(=O)N/C(=C\c2ccco2)C(=O)N2CCOCC2)cc1C"
[A] t

[Q] is_below(IC50, 30 µM) for "CCCOc1ccc(/C=C(\NC(=O)c2ccccc2)C(=O)N/N=C/c2ccco2)cc1" ?
[A] t

[Q] Hello, is IC50 of the following compound strictly smaller than 30 µM? "CCOC(=O)C1=C2SCC(=O)N2C(N)=C(C#N)C1"
[A] t

[Q] Say whether its IC50 is strictly beneath 30 µM. Entry: O=C(Nc1ccc(F)cc1)c1ccc([NH+]([O-])O)o1 (stereo not drawn)
[A] f

[Q] Please check: IC50 for "O=C(Nc1ccccc1F)c1ccc([N+](=O)[O-])o1" , strictly under 30 µM or not?
[A] f

[Q] I'd appreciate it if you could check whether "O=C(Nc1ccccc1C(=O)N/N=C/c1ccco1)c1ccccc1Cl" has IC50 smaller than 30 µM.
[A] f

[Q] Input "Cc1ccc(NC(=O)/C(=C\c2ccco2)NC(=O)c2ccc(C)cc2)cc1" ; condition: IC50 strictly below 30 µM. Does it hold?
[A] t

[Q] Is IC50 of "Cc1ccc(/C=N/NC2=NC(=O)CS2)o1" strictly below 30 µM?
[A] t

----------
- test.system: alanyl aminopeptidases (APN) (Homo sapiens, UniProt P15144)
- measurement.notes: Inhibition of alanyl aminopeptidase enzymatic activity, fluorogenic substrate (Ala)2-rhodamine 110
- Format: biochemical
- measurement.conditions: Table 9, unstarred values; read-out: IC50APN
- Description: The inhibition characteristics measured are referred to as IC-50 values or ID50 values (the latter marked with “*”) for said enzyme. The enzymatic activity was determined by means of the fluorogenic substrate/product (Ala)2-rhodamine 110.
measurement.label: pIC50
Lab note — pIC50 values are minus log10 of concentrations in M.

A selection of reference data follows.
{"compound": "N#Cc1cc(N2CC3CC(C2)c2cccc(=O)n2C3)c([N+](=O)[O-])cc1C#N (stereo not drawn) [A9.017]", "pIC50": 5.05}
{"compound": "O=C(O)c1cc2nc(-c3ccco3)cc(C(F)(F)Cl)n2n1 [A9.028]", "pIC50": 4.88}
{"compound": "CO/N=C(\\c1nonc1N)N1CCN(c2ccc([N+](=O)[O-])cc2Cl)CC1 [A9.045]", "pIC50": 4.72}
{"compound": "Cc1cc(=O)[nH]c(N/N=C/c2ccco2)n1 [A9.041]", "pIC50": 4.74}
{"compound": "Cn1c(=O)[nH]c2nnc(-c3cccs3)nc2c1=O [A9.065]", "pIC50": 4.65}
{"compound": "CN1C/C(=C/c2ccco2)C(=O)/C(=C/c2ccco2)C1 [A9.046]", "pIC50": 4.72}

[Q] Name the value of pIC50 reported for O=C(N/C(=C\c1ccco1)C(=O)N1CCCCC1)c1ccco1 [A9.022] when tested on alanyl aminopeptidases (APN) (Homo sapiens, UniProt P15144).
[A] 4.97

[Q] Specify the recorded pIC50 for CC1=C(C#N)C(=O)N(CCCO)C(=O)/C1=C\c1ccc(-c2cc(C)c(C)cc2[N+](=O)[O-])o1 [A9.019] , system: alanyl aminopeptidases (APN) (Homo sapiens, UniProt P15144).
[A] 5.01

[Q] With alanyl aminopeptidases (APN) (Homo sapiens, UniProt P15144) as the test system, provide measured pIC50 for this compound: CC1CCN(S(=O)(=O)c2ccc3c(c2)C(Cl)(Cl)C(=O)N3)CC1 [A9.092]
[A] 4.43

----------
Known IC50 of a selection of compounds
- test.system: alanyl aminopeptidases (APN) (Homo sapiens)
- measurement.notes: Inhibition of alanyl aminopeptidase enzymatic activity, fluorogenic substrate (Ala)2-rhodamine 110
- Assay type: biochemical
- measurement.conditions: Table 9, unstarred values; read-out: IC50APN
Provide only the numeric value, understood in µM.

{"compound": "Cc1ccc(C(=O)N/C(=C\\c2ccco2)C(=O)N2CCSCC2)cc1C [A9.109]", "value.unit": "µM", "IC50": 68.9}
{"compound": "Nc1nc2nc(-c3ccco3)cc(C(F)(F)F)n2n1 [A9.084]", "value.unit": "µM", "IC50": 32.1}
{"compound": "Cc1ccc(/C=N\\NC(=O)c2cnccn2)o1 [A9.020]", "value.unit": "µM", "IC50": 9.8}

Query compound follows.
[Q] Look up and report measured IC50 for this entry: Cc1ccccc1NC(=O)C1C(c2cccs2)C(C#N)=C(SCC(=O)Nc2ccc(Br)cc2)NC1(C)O (stereo not shown) [A9.087]
[A] 33.9

----------
- test.system: alanyl aminopeptidases (APN) (Homo sapiens, UniProt P15144)
- measurement.notes: Inhibition of alanyl aminopeptidase enzymatic activity, fluorogenic substrate (Ala)2-rhodamine 110
- Assay type: biochemical
- measurement.conditions: Table 3, unstarred values; read-out: IC50APN
pIC50 listing for selected molecules.
The value called pIC50 is obtained by taking minus log10 of the concentration in mol/L.

{"molecule": "O=C(Nc1ccccc1C(=O)N/N=C/c1ccco1)c1ccc(Cl)cc1Cl [A3.092]", "pIC50": 4.73}
{"molecule": "CCOC(=O)C1C(C)C2C3C(=O)N(c4cccc5ccccc45)C(=O)C3C1(C)C1C(=O)N(c3cccc4ccccc34)C(=O)C21 (stereo not shown) [A3.027]", "pIC50": 5.13}
{"molecule": "COc1ccc(C(=O)N/N=C/c2cc(Br)c(C)o2)cc1 [A3.125]", "pIC50": 4.66}

Next item in the queue.
[Q] Name the recorded pIC50 of the molecule listed here: C=CC[N+]1=C(/C=C2\SC(c3ccccc3)=C(c3ccccc3)N2CC)S/C(=C/C=C2\SC(c3ccccc3)=C(c3ccccc3)N2CC)C1=O [A3.045]
[A] 4.95

----------
- test.system: alanyl aminopeptidases (APN) (Homo sapiens, UniProt P15144)
- measurement.notes: Inhibition of alanyl aminopeptidase enzymatic activity, fluorogenic substrate (Ala)2-rhodamine 110
- Type: biochemical
- measurement.conditions: Table 8, unstarred values; read-out: IC50APN
measurement.label: IC50 (µM)
Give the number; µM is assumed, so skip it.

{"compound": "CN(/N=C/c1sc(=O)[nH]c1Cl)c1ccccc1 [A8.014]", "measurement.label": "IC50", "readout.number": 14.4}
{"compound": "O=C1C(Cc2ccccc2)NC(=S)N1c1ccccc1 (stereo not shown) [A8.020]", "measurement.label": "IC50", "readout.number": 26.1}
{"compound": "CC(=O)C1C(c2ccc(N(C)C)cc2)C2C(=O)N(C3CCCCC3)C(=O)N2C1c1sccc1C (stereo not shown) [A8.036]", "measurement.label": "IC50", "readout.number": 68}
{"compound": "Cn1c(=O)[nH]c2nnc(-c3cccs3)nc2c1=O [A8.023]", "measurement.label": "IC50", "readout.number": 22.6}
{"compound": "Cc1ccc(/C=N/NC2=NC(=O)CS2)o1 [A8.022]", "measurement.label": "IC50", "readout.number": 26.4}
{"compound": "Cn1nc(-c2cccs2)nc2c(=O)n(C)c(=O)nc1-2 [A8.021]", "measurement.label": "IC50", "readout.number": 25}
{"compound": "CCOC(=O)N1CCc2c(sc(NC(=O)c3ccc(F)cc3)c2C(=O)Nc2ccc(Br)cc2)C1 [A8.005]", "measurement.label": "IC50", "readout.number": 7.3}
{"compound": "O=C1C(Cc2c[nH]c3ccccc23)NC(=S)N1c1ccccc1 (stereo not shown) [A8.009]", "measurement.label": "IC50", "readout.number": 12.4}
{"compound": "CC(C)CC1CC(=S)C(C2CCCCC2)C1=O (stereo not shown) [A8.007]", "measurement.label": "IC50", "readout.number": 8}

Next compound, IC50 to be filled in.
[Q] Please supply the value of reported IC50 for the item Cc1ccc(Cn2c(SCCC(=O)O)nc3c2c(=O)n(C)c(=O)n3C)cc1 [A8.025]
[A] 28
